Recorded IC50, one value per entry.
Target under test: T1, recombinant biotinylated human PAR2 extracellular domain (residues 1-75), N-terminal AviTag, C-terminal Flag … (human, UniProt P55085 26-75, biotin on the AviTag (enzymatic biotinylation))
T1 construct: also called Bio-human-PAR2 ECD; human PAR2 ECD; not shown: N-terminal AviTag (Avidity LLC); C-terminal Flag and poly Histidine tags
T1 sequence (P55085 26-75): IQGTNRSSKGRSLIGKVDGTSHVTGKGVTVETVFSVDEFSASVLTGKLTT
Method summary: HTRF competition with Par0067 IgG, pH 7.4, scFv
Procedure: 5 μl/well of the appropriate pH 4.44 nM Par0067 IgG solution was added to all wells of the relevant assay plate (pH 7.4 and pH 6.0). […] For multipoint dose response curves % Specific Binding values were plotted versus test purified antibody concentration (scFv or IgG). IC₅₀ values were determined via a sigmoidal dose response inhibition variable slope curve fit (4 parameter logistic equation) using Graphpad Prism Software.
Experimental readout: IC50 (nM)

INSERT INTO measurements (binder, unit, endpoint_value) VALUES
  ('PaB670078 scFv (scFv, V domains shown, purified scFv; also called ZZ1OZJ-G03) VH: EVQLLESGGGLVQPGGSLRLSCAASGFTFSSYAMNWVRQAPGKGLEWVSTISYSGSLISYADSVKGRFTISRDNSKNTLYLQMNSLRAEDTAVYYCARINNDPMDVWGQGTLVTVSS VL: SIELTQPPSVSVSPGQTASITCSGDNLGKKYVQWYQQKPGQSPVLVIYDDSNRPSGIPERFSGSNSGNTATLTISGTQAMDEADYYCHHWHGHPHTGEHNVFGGGTKLTVL', 'nM', 33.3),
  ('PaB670099 scFv (scFv, V domains shown, purified scFv) VH: EVQLLESGGGLVQPGGSLRLSCAASGFTFSSYAMNWVRQAPGKGLEWVSTISYHGSHISYHDSVHHRFTISRDNSKNTLYLQMNSLRAEDTAVYYCARINNDPMDVWGQGTLVTVSS VL: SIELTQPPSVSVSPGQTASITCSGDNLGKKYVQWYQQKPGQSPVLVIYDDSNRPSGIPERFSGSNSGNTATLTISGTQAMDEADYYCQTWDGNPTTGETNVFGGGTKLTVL', 'nM', 12.9);
